B1: CAMK2D (parent)
chain: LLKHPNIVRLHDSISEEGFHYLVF

# Variants of: B1
# protocol text: protein stability index of a GFP-peptide fusion (GPS, HEK-293T) (PSI 1-6); higher = more stable;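 also: lentivirally expressed fusions sorted by FACS into six bins by GFP to DsRed ratio, PSI derived from sequencing read proportions per bin multiplied by bin number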
# conditions: c terminus: a fixed tail appended
Category | rule: reported protein stability index within range, see low value: < 2; medium value: ≥ 2 and < 3; high value: ≥ 3

Take a look at these entries with their results.
mutation_key=K3E classification="medium value"
mutation_key=P5G classification="low value"
mutation_key=L2N classification="high value"
mutation_key=K3R classification="medium value"
mutation_key=H4W classification="low value"

Asked: For this variant, which bin applies? S15G
Given back: low value

Asked: For this variant, which bin applies? E17R
Given back: medium value

Value source: the supplement of paper PMC10567573
